system: HOP-92 NSCLC; test: NCI tumour cell line growth inhibition, 48 h; in the data active = GI50 below about 0.43 µM; inactive = the rest
Outcome codes: True = active, False = inactive

• COc1ccc(-c2cn(-c3cc(OC)c(OC)c(OC)c3)c(=O)[nH]2)cc1OC = False
• CCCCCCCCCCCCCCCCN(CC)CC = False
• CCOC(=O)c1cc(NS(=O)(=O)c2ccc(C)cc2)cc(C(=O)OCC)c1 = False
• O=C(c1ccccc1)c1nc2ccc(C(F)(F)F)cc2nc1N1CCN(c2ccccc2)CC1 = False
• CC(C)C(=O)c1c(C(F)(F)F)n([O-])c2ccccc2[n+]1=O = False
• CN1CCN(CCCN2c3ccccc3Sc3ccc(Cl)cc32)CC1 = False
• COc1cc2nc3cc([N+](=O)[O-])ccc3c(NCCNCC(C)O)c2cc1OC (stereo not drawn) = True
• COc1ccc2nc3cccc([N+](=O)[O-])c3c(NC(C)CN(C)C)c2c1 (stereo not drawn) = False

====

system: HS 578T breast; experiment: NCI tumour cell line growth inhibition, 48 h
Measured property: TGI

* CCCC(=O)OC[n+]1ccc(-c2c(COC(=O)NC(C)C)c(COC(=O)NC(C)C)c3n2CCC3)cc1 | > 100 µM
* CC(C)C(=O)c1c(C(F)(F)F)n([O-])c2ccccc2[n+]1=O | 18.1 µM
* O=S(=O)(c1cc(Cl)ccc1Cl)N1CCN(c2cccc(Cl)c2)CC1 | > 100 µM
* CCOC(=O)c1cc(NS(=O)(=O)c2ccc(C)cc2)cc(C(=O)OCC)c1 | 69.9 µM
* O=[N+]([O-])C(/C=C(\Cl)[N+](=O)[O-])=C(N1CCCCC1)N1CCCCC1 | > 100 µM
* CCN(CCO)CCNc1ccc(C)c2sc3ccccc3c(=O)c12 | 7.49 µM
* O=C1CC(N2C(=O)/C(=C/C(Cl)=C\c3ccc([N+](=O)[O-])cc3)SC2=S)C(=O)N1c1ccc(O)cc1 (stereo not given) | 12.6 µM
* CC1(C)CCCCCCCCCC2CC2CCC(C)(C)C1=O (stereo not given) | 82.3 µM
* NC(=O)Cn1c(=O)oc2cc(C(=O)CN3CCOCC3)ccc21 | > 100 µM
* NC(N)=Nc1ccc(/C=C2\C=Cc3ccccc32)cc1 | 28.6 µM

====

tested on: SK-OV-3 ovarian; test: NCI tumour cell line growth inhibition, 48 h
Measured property: GI50

• O=C1c2cc(F)ccc2-c2c1c1ccc([N+](=O)[O-])cc1c(=O)n2CCCBr = 20.2 µM
• Cc1ccsc1-c1ccc2c(c1)COC2(CCCN(C)C)c1ccc(F)cc1 (stereo not given) = 8.16 µM
• CNC(=O)c1cccc(C#Cc2cncnc2Nc2ccc(OCc3cccc(F)c3)c(Cl)c2)c1 = 3.19 µM
• C=C1c2nc3ccccc3n2C=C(c2ccc(Cl)cc2)N1c1ccc(OCCN2CCCCC2)cc1 = > 100 µM
• COc1ccc(NC(=O)c2ccc(NC3=C(Cl)C(=O)N(Cc4ccccc4)C3=O)cc2)c(OC)c1 = > 100 µM

====

tested on: NCI-H23 lung; assay: NCI tumour cell line growth inhibition, 48 h; in the data active means GI50 below about 0.43 µM; inactive means the rest
Classes used: active, inactive

• COc1ccc2nc3cccc([N+](=O)[O-])c3c(NC(C)CN(C)C)c2c1 (stereo not given) = inactive
• C/C=C(\C)C(=O)O[C@H]1C=CC(=O)O[C@H]1COC(=O)[C@H](C)O = inactive
• Oc1ccccc1/C=N\NC(=S)N/N=C/c1ccccc1O = inactive
• CC(C)Cc1ccc(C(C)C(=O)NCc2ccc(Cn3c(=O)sn(CCCI)c3=O)cc2)cc1 (stereo not given) = inactive
• O=S(=O)(NCCCNc1cc(-c2cn(-c3ccccc3)nc2-c2cccc(O)c2)ccn1)c1ccc(Br)cc1 = inactive
• CN(C)c1ccccc1[CH2][Ga]([Cl])[CH2]c1ccccc1N(C)C = inactive
• O=C1c2cc(F)ccc2-c2c1c1ccc([N+](=O)[O-])cc1c(=O)n2CCCBr = inactive
• COc1ccc(-c2[nH]nc(N)c2-c2cc(OC)c(OC)c(OC)c2)cc1 = active
• CN(C)CCOc1ccccc1NC1=C(Cl)C(=O)C(Nc2ccccc2OCCN(C)C)=C(Cl)C1=O = inactive
• Cn1c(-c2c(N)n(Cc3ccc(F)cc3)c3nc(C#N)c(C#N)nc23)nc2ccccc21 = inactive
• C=CC(=O)Nc1cccc(Oc2nc(Nc3ccc(N4CCN(C)CC4)cc3OC)ncc2Cl)c1 = inactive
• Cn1cc(C2=C(c3cn(CCCCCO)c4ccccc34)C(=O)NC2=O)c2ccccc21 = inactive
• COc1cc(/C=C/C(=O)c2c(-c3ccc(F)cc3)nc3sc(C)nn23)cc(OC)c1OC = inactive
• COC(=O)c1oc2c(C(=O)/C=C/c3ccc(OC)cc3)c(OCCN3CCOCC3)ccc2c1C = inactive
• CN(C)C=Nc1c(I)cc(I)c(CCC(=O)O)c1I = inactive

====

tested on: IGROV1 ovarian; assay: NCI tumour cell line growth inhibition, 48 h
Overview of recorded log10(TGI) for various molecules
Measured property: log10(TGI) (log10 of the value in µM)

* NCCSC(c1ccccc1)(c1ccccc1)c1ccccc1 | 0.92
* COc1cc(/C=C/C(=O)c2c(-c3ccc(F)cc3)nc3sc(C)nn23)cc(OC)c1OC | 0.83
* C[N+]12C=CC=C1C(N1CCCC1)c1scc(-c3ccc(F)cc3)c12 (configuration not stated) | 1.56
* CC(=O)NC1COC(COC(=O)CCCCCCCCCCNC(=O)c2ccc([N+](=O)[O-])c3c(=O)c4ccccc4[nH]c23)C(O)C1OC(C)C(=O)NC(C(=O)NC(CCC(N)=O)C(=O)OCc1ccccc1)C(C)C (configuration not stated) | 1.26
* Cc1cccc(Cl)c1NC(=O)c1cnc(Nc2cc(N3CCOCC3)cc(S(C)(=O)=O)c2)s1 | -0.28
* N#Cc1c(N/N=C\c2ccc(Cl)cc2)nc(N)nc1N1CCOCC1 | 1.99
* CCN(CC)Cc1cc(Nc2ccnc3ccc4nn(C)nc4c23)ccc1O | 2.00
* Nc1cc(Cl)ccc1SSc1ccc(Cl)cc1N | 1.41
* CN(C)Cc1c(C(=O)NCCOc2ccc(C(=O)NO)cc2)oc2ccccc12 | 0.56
* COc1cc(CNc2c3ccccc3nc3ccccc23)cc(OC)c1OC | 1.40
* COc1ccc(NC(=O)c2ccc(NC3=C(Cl)C(=O)N(Cc4ccccc4)C3=O)cc2)c(OC)c1 | 1.87
* COC(=O)CNc1nc(N(C)O)nc(N(C)O)n1 | 1.60
* O=C(CC1(O)C(=O)Nc2c(Cl)cc(Cl)cc21)c1ccc(F)cc1 (configuration not stated) | 1.83
* O=C1CC(N2C(=O)/C(=C/C(Cl)=C\c3ccc([N+](=O)[O-])cc3)SC2=S)C(=O)N1c1ccc(O)cc1 (configuration not stated) | 0.43
* COc1cc(C2CC(=O)Nc3c2c(C)nn3-c2nc3ccccc3[nH]2)cc(OC)c1O (configuration not stated) | 0.88
* N#CC1=C(N)Oc2c(sc3c(Br)cccc23)C1c1ccc(Cl)cc1 (configuration not stated) | 0.64
* NC(N)=N/N=C/c1c(-c2cccnc2)nc2sc(Cl)cn12 | 1.77
* C=C1CC2(CCS(=O)(=O)c3ccccc32)OC1=O (configuration not stated) | 1.53
* COc1cc(O)c2c(c1)C(=O)C1=C(C2=O)C(O)C[C@@](C)(O)C1 (some centres not stated) | 0.57

====

system: BT-549 breast; assay: NCI tumour cell line growth inhibition, 48 h
Measured property: TGI

• N=C(N)c1ccc(N=Nc2c(O)ccc3cc4c(N=Nc5ccc(C(=N)N)cc5)c(O)ccc4cc23)cc1 = > 100 µM
• CC(C)Cn1cnc2c(Cl)nc3ccccc3c21 = > 100 µM
• O=C(O)c1cn(C2CC2)c2cc(N3CCN(Cc4c(O)ccc5ccccc45)CC3)c(F)cc2c1=O = 48.7 µM
• Nc1nn(C(=O)Nc2c(F)cccc2F)c2ccccc12 = > 100 µM
• C=CCCCC1(C)CCNC1=S (centres undefined) = > 100 µM
• CCOc1cccc(-c2cc(=O)c3cc4c(cc3[nH]2)OCO4)c1 = > 100 µM
• COc1ccc2c(c1)CCCc1c-2nc2ccccc2c1N = 31 µM
• O=C(O)Cc1ccc(N=Nc2c(O)c(C(=O)O)cc3ccccc23)cc1 = > 100 µM
• NC(N)=N/N=C/c1c(-c2cccnc2)nc2sc(Cl)cn12 = 32.4 µM

====

tested on: SF-539 CNS; assay: NCI tumour cell line growth inhibition, 48 h
Measured property: TGI

* CCCC(=O)OC[n+]1ccc(-c2c(COC(=O)NC(C)C)c(COC(=O)NC(C)C)c3n2CCC3)cc1 | > 100 µM
* C=C(Cl)C(C)(Cl)CCC(Cl)C(C)C (stereo not drawn) | > 100 µM
* O=C(CSSCC(=O)OCCS(=O)(=O)Nc1ccc(Br)cc1)OCCS(=O)(=O)Nc1ccc(Br)cc1 | 32.8 µM
* CC(C)(C)n1c(=O)n2n(c1=O)C1c3cccc4cccc(c34)C2C2c3cccc4cccc(c34)C1n1c(=O)n(C(C)(C)C)c(=O)n12 | > 100 µM
* COc1cc2c(c(OC)c1OC)-c1c(c3ccc([N+](=O)[O-])cc3c(=O)n1CCCN)C2=O | 3.28 µM
* Cc1ccc(C2=Nc3ccccc3S(=O)C(c3ccc4c(c3)OCO4)C2)cc1 (stereo not drawn) | 46.3 µM
* O=c1[nH]c(=O)n(CCOCP(=O)(O)O)nc1Br | > 100 µM
* CS(=O)(=O)O[C@H]1[C@H](O)c2ccccc2[C@@H]1N=[N+]=[N-] | > 100 µM
* O=C([CH-]C(=O)c1ccccc1)c1ccccc1.O=C([CH-]C(=O)c1ccccc1)c1ccccc1.O=C([CH-]C(=O)c1ccccc1)c1ccccc1.[Cl-].[Hf+4] | 41.8 µM
* CC(C)Cn1cnc2c(Cl)nc3ccccc3c21 | > 100 µM
* NC(N)=Nc1ccc(/C=C2\C=Cc3ccccc32)cc1 | 9.66 µM
* Cn1c(=O)ccc2c(=O)c3ccccc3oc21 | > 100 µM
* CCCCCCCCCCCCC(Br)C(C)=O (stereo not drawn) | > 100 µM
